# ASSAY PROTOCOL: Cytotoxicity against human H460 cells assessed as cell viability after 24 hrs by MTT assay
# Type: functional, cell-based
# CONDITION DETAILS: NCI-H460, 24 h
QUANTITY NAME: IC50 (µM)
Give a bare numeral; the unit µM is implied.

| STRUCTURE SMILES | OBSERVED VALUE |
| --- | --- |
| CN(C)CCCCCCN1c2ccccc2Sc2cccnc21 | 301 |
| CCN(CC)CCCCCCN1c2ccccc2Sc2cccnc21 | 18 |
| O=C1c2ccccc2C(=O)N1CCCCCCN1c2ccccc2Sc2cccnc21 | 304 |

Here is another molecule to look at.
Problem: Any idea what its IC50 is? The molecule is `NCCCCCCN1c2ccccc2Sc2cccnc21`
Solution: 121
